These entries and their values trace back to patent US8557833B2.

Recorded Ki values for a group of compounds are listed next.
Target: Aurora-2 (Aurora A) (Homo sapiens, UniProt O14965)
Sequence (O14965 whole entry): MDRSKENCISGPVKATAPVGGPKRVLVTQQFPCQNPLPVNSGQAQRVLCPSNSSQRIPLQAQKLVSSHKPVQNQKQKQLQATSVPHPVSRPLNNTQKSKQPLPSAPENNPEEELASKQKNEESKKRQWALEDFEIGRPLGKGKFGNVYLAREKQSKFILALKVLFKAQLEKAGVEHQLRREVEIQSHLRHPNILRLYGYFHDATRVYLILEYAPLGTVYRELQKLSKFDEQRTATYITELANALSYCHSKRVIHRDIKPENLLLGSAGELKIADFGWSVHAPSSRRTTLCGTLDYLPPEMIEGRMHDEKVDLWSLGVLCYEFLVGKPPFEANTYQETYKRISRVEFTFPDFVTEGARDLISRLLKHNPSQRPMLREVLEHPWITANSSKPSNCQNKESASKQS
Assay: Aurora-2 (Aurora A) inhibition assay, coupled enzyme
Type: biochemical
readout-label: Ki

• CCc1cc(Nc2cc(N3CCC3)nc(Sc3ccc(NC(=O)c4ccccc4Cl)cc3)n2)n[nH]1 [Compound I-16] = 0.56 nM
• Cc1cc(Nc2cc(N3CCC3)nc(Sc3ccc(NC(=O)c4cccc(Cl)c4Cl)cc3)n2)n[nH]1 [Compound I-9] = 0.85 nM
• Cc1cc(Nc2cc(N3CCC3)nc(Sc3ccc(NC(=O)c4cccc(Cl)c4)cc3)n2)n[nH]1 [Compound I-12] = 1.4 nM
• Cc1cc(Nc2cc(N3CCC3)nc(Sc3ccc(NC(=O)c4cccc(C)c4Cl)cc3)n2)n[nH]1 [Compound I-20] = 0.77 nM

---

Target: FLT-3 (Homo sapiens)
Sequence (P36888 27-993, species assumed): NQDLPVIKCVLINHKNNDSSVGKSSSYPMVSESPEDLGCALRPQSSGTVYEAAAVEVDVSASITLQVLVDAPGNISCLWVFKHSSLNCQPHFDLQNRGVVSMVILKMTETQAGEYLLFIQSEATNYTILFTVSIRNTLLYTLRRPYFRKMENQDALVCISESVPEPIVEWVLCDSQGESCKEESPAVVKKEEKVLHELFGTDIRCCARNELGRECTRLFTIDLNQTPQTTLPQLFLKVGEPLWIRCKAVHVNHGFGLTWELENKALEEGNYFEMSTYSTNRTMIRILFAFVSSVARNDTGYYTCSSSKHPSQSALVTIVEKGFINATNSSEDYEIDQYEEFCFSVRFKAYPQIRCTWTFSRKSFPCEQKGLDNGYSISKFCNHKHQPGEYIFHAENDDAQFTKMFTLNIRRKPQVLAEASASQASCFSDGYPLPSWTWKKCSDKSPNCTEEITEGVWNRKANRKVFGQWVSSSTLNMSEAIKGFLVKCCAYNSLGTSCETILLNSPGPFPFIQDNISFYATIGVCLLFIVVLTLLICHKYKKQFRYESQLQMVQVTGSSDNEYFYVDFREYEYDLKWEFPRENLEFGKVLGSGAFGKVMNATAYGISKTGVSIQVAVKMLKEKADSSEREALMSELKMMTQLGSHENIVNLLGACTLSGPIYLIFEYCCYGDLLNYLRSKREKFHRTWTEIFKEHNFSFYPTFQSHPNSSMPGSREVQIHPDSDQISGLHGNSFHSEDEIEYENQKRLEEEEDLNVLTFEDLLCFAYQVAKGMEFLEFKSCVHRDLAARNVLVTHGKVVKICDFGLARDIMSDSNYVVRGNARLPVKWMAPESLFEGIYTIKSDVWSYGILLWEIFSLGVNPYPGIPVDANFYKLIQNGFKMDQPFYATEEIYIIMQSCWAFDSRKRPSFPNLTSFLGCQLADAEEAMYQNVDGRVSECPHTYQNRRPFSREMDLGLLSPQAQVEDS
Assay: FLT-3 inhibition assay, radiometric filter-binding
Assay type: biochemical
readout-label: Ki (nM)

* Cc1cc(Nc2cc(N3CCC3)nc(Sc3ccc(NC(=O)c4ccccc4Cl)nc3)n2)[nH]n1 [Compound I-24] | 700
* Cc1cccc(C(=O)Nc2ccc(Sc3nc(Nc4cc(C)[nH]n4)cc(N4CCC4)n3)cc2)c1 [Compound I-4] | 330
* Cc1cc(Nc2cc(N3CCC3)nc(Sc3ccc(NC(=O)c4cccc(Cl)c4)cc3)n2)n[nH]1 [Compound I-12] | 540
* Cc1cc(Nc2cc(N3CCC3)nc(Sc3ccc(NC(=O)c4cccc(Cl)c4F)cc3)n2)n[nH]1 [Compound I-15] | 160
* Cc1cc(Nc2cc(N3CCC3)nc(Sc3ccc(NC(=O)c4cccc(C)c4Cl)cc3)n2)n[nH]1 [Compound I-20] | 240
* O=C(Nc1ccc(Sc2nc(Nc3cc(C4CC4)[nH]n3)cc(N3CCC3)n2)cc1)c1ccccc1Cl [Compound I-17] | 100
* Cc1cc(Nc2cc(N3CCC3)nc(Sc3ccc(NC(=O)c4cc(Cl)ccc4Cl)cc3)n2)n[nH]1 [Compound I-21] | 550
* COc1ccccc1C(=O)Nc1ccc(Sc2nc(Nc3cc(C)[nH]n3)cc(N3CCC3)n2)cc1 [Compound I-6] | 120
* Cc1cc(Nc2cc(N3CCC3)nc(Sc3ccc(NC(=O)c4cccc(C(F)(F)F)c4F)cc3)n2)n[nH]1 [Compound I-13] | 350
* Cc1cc(Nc2cc(N3CCC3)nc(Sc3ccc(NC(=O)c4c(Cl)cccc4Cl)cc3)n2)n[nH]1 [Compound I-11] | 110
* Cc1cc(Nc2cc(N3CCC3)nc(Sc3ccc(NC(=O)c4ccccc4OC(F)(F)F)cc3)n2)[nH]n1 [Compound I-8] | 170
* CCc1cccc(C(=O)Nc2ccc(Sc3nc(Nc4cc(C)[nH]n4)cc(N4CCC4)n3)cc2)c1Cl [Compound I-22] | 190

---

Target: TrkA (Homo sapiens)
Sequence (P04629 33-796, species assumed): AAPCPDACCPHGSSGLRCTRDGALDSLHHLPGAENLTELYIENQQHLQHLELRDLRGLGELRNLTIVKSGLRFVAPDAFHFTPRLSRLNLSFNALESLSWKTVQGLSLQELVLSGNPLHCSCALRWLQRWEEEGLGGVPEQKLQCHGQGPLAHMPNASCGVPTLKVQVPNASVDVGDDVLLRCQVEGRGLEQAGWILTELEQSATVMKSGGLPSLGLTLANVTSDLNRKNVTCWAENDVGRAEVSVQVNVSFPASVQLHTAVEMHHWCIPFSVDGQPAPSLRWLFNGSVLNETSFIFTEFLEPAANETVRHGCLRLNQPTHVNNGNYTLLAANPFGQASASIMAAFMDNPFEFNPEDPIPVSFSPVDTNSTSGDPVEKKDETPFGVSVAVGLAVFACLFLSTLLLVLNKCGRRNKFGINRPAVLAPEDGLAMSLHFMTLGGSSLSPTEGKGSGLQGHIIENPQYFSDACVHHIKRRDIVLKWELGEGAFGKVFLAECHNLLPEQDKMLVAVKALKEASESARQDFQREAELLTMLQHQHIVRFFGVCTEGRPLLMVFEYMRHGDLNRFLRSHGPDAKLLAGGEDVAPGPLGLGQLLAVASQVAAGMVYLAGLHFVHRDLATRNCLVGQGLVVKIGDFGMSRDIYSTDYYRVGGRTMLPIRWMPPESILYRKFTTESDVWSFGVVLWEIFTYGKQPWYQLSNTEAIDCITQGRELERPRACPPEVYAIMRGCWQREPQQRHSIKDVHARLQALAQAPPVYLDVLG
pKi: −log10 of the molar value.
readout-label: pKi

* Cc1cc(Nc2cc(N3CCC3)nc(Sc3ccc(NC(=O)c4ccccc4Cl)cc3)n2)[nH]n1 | > 8.22

---

Target: JAK-2 (Homo sapiens)
Sequence (O60674 whole entry, species assumed): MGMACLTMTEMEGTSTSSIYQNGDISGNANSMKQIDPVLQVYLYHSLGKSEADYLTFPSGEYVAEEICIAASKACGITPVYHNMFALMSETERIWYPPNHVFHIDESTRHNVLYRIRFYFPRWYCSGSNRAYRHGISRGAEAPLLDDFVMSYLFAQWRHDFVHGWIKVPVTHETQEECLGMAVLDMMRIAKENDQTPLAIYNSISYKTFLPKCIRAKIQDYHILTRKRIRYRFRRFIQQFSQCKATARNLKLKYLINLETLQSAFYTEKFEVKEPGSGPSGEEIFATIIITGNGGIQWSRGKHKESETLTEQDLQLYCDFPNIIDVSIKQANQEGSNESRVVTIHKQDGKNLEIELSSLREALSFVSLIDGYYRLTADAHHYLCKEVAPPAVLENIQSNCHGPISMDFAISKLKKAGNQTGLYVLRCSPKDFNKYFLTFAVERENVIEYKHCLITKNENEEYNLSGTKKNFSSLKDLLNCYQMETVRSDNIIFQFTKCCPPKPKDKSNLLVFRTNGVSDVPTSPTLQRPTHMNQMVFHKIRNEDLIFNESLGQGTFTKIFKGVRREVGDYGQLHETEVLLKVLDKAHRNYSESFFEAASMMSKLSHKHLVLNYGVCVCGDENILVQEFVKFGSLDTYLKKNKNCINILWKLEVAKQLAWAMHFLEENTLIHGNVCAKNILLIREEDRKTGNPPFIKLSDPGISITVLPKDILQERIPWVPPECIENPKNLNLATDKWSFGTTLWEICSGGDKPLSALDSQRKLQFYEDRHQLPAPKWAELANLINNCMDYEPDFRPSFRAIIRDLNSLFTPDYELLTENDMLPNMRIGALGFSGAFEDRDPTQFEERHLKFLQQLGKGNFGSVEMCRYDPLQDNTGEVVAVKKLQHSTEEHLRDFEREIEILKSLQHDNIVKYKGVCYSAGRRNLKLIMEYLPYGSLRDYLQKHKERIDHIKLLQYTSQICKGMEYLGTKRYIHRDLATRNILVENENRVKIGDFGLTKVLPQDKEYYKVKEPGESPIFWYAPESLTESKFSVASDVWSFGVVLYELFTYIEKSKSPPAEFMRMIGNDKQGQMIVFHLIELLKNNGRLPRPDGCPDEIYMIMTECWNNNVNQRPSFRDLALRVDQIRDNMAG
pKi: −log10 of the molar value.
Label Fulfilled when pKi >= 6; otherwise Not fulfilled.

* Cc1cc(Nc2cc(N3CCC3)nc(Sc3ccc(NC(=O)c4ccccc4C)cc3)n2)[nH]n1 | Fulfilled
* Cc1cc(Nc2cc(N3CCC3)nc(Sc3ccc(NC(=O)c4ccccc4OC(F)(F)F)cc3)n2)[nH]n1 | Not fulfilled
* O=C(Nc1ccc(Sc2nc(Nc3cc(C4CC4)[nH]n3)cc(N3CCC3)n2)cc1)c1ccccc1Cl | Fulfilled
* Cc1cccc(C(=O)Nc2ccc(Sc3nc(Nc4cc(C)[nH]n4)cc(N4CCC4)n3)cc2)c1 | Fulfilled
* COc1cccc(C(=O)Nc2ccc(Sc3nc(Nc4cc(C)n[nH]4)cc(N4CCC4)n3)cc2)c1 | Fulfilled
